The sequences listed here are annotated with their relative integration efficiency (log2).
# Tested on: VchCAST RNA-guided transposition machinery (E. coli BL21(DE3) host, lacZ target)
# procedure_text: relative integration efficiency (T-LR orientation) vs wild-type transposon end (log2 (normalized fold change)); transposon end mutated: right end (5 bp flank + 75 bp right end); higher = more efficient transposition
reported_endpoint: relative integration efficiency (log2)

query_sequence=ACATTTGTTGATACAACCATAAAGTGATATTTACAACCATAAAATGATAATTATCACAACCATAAAATGATAATTACTCTGATCATAGTCAGACCAACATTGCTACGACCCGTATTCGCACCGACAC reported_result=0.0497
query_sequence=ACATTTGTTGATACAACCATAAAATGATAATTACACCCATAAATTGATAATTATCACACCCATAAATTGATATTGCCTCAACCATAAAATGATAATTACTGATCATAGTCAGACCAAGCACCGACAC reported_result=-1.08
query_sequence=ACATTTGTTGATACAACCATAAAATCATCATTACCCCCATAAATTGATAATTATCCCACCCCATTTAACTATAACGCTCTGATCATAGTCAGACCAACATTGCTACGACCCGTATTCGCACCGACAC reported_result=-0.0125
query_sequence=ACATTTGTTGATACAACCATAAATTGATAATTACACCCATAAAATGATAATTATCACACCCATAAAATGATATTGCCTCTGATCATAGTCAGACCAACATTGCTACGACCCGTATTCGCACCGACAC reported_result=-0.368
query_sequence=ACATTTGTTGATACAACCATATAATGATAATTACACCCATATATTGATAATTATCACACCCATATATTGATATTGCCTCTGATCATAGTCAGACCAACATTGCTACGACCCGTATTCGCACCGACAC reported_result=0.24
query_sequence=ACATTTGTGGATCCAACCATAAAATGATAATTACACCCATAAATGGATAATTATCACACCCAATTTAACTATAACGCTCTGATCATAGTCAGACCAACATTGCTACGACCCGTATTCGCACCGACAC reported_result=1.18
query_sequence=ACATTTGTTGATACACAACGCCCCGTCGCCGGCACAAACGCCCGGTCGCCGGCGACACAAACGCCCGGTCGCGGTAAGAGGATCATAGTCAGACCAACATTGCTACGACCCGTATTCGCACCGACAC reported_result=-5.17
query_sequence=ACATTTGTTGATACAACCATAAAATGATAATTACACCCATAAATTGATAATTATCACACCCATAAATTGATATTGGGAGTGATCATAGTCAGACCAACATTGCTACGACCCGTATTCGCACCGACAC reported_result=0.108
query_sequence=CAAAATGTAAAAAAAACCATACGTTGATTTTACGAAACCATACGCTGAAATAATCACAACCATACCTTGAAATTGCTTATAAAGTGTACAACACTTGAGAAAGTTTACTACAGGTATGCACCGACAC reported_result="< -10"
query_sequence=ACATTTGTTCATACAACCATAAAATGATAATTACCACCCATACATTGATAATTATCACACCCATTTAACTATAACGCTCTGATCATAGTCAGACCAACATTGCTACGACCCGTATTCGCACCGACAC reported_result=-2.29
query_sequence=ACATTTGTTGATACAACCATAAAATGATAATTACACCCATAAATTGATAATTATCACACCCATAAATTGATATTGCCTCTACATGAATTCAAAGTTATGTAATATAGTACTATGTACGCACCGACAC reported_result=0.172
query_sequence=ACATTTGTTGATACAACCATAAAATGATAATTACACCCATAAATTGATAATTATCACACCCATAAATTGAGCGGTAAGAGGATCATAGTCAGACCAACATTGCTACGACCCGTATTCGCACCGACAC reported_result=1.6
query_sequence=ACATTTGTTGATACACCCATAAATTGATAATTACAACCATAAGTTGATATTTTTCACAACCATATATTGATATCTCCTCTGATCATAGTCAGACCAACATTGCTACGACCCGTATTCGCACCGACAC reported_result=-0.393
query_sequence=ACATTTGTTGATACAACCATAAAATGATAATTCACCCATAAATTGATAATTATCACACCCATAAATTGATATTGCCTCTGATCATAGTCAGACCAACATTGCTACGACCCGTATTCGCACCGACACT reported_result=-0.727
query_sequence=ACATTGTTTGATACAACCATAAAATGATAATTACACCCATAAATTGATAATTATCACACCCATAAATTGATATTGCCTCTGATCATAGTCAGACCAACATTGCTACGACCCGTATTCGCACCGACAC reported_result=-4.94
query_sequence=ACATTTGTTGATACAACCATAAAATGATAATTACACCCATAATTTGATAATTACCACTCCCAATTTAACTATAACGCTCTGATCATAGTCAGACCAACATTGCTACGACCCGTATTCGCACCGACAC reported_result=2.36
query_sequence=ACATTTGTTGATACAACCATAAAATGATAATTACTCTGATCATAGTCAGACCAACATTGCTACGACCCGTATTCACCCATAAATTGATAATTATCAGTGGGTATTTAACTATAACGCGCACCGACAC reported_result=1.08
query_sequence=ACATTTGTTGATACAACCATAAAATGATAATTACACCCATAAATTGATAATTATCACACCCATAAATTGATATTGCCTCTGATCATAGTCAGATGAATTTTTATGCAAAGACCAACAGCACCGACAC reported_result=0.652

Data origin: the supplement of paper PMC10201428
